System: Enterococcus sp.
Assay: in vitro antibacterial evaluation, MIC by broth dilution
Format: cell-based
Conditions: broth dilution, 18 hours at 35° C.; strain GC 2243
Text: Methods for in vitro Antibacterial Evaluation (Table 1) […]
# key: entry, value: MIC Enterococcus faecium (GC 2243)
Quick note: give the figure in mg/L, leave out the unit.

# molecule, MIC Enterococcus faecium (GC 2243) [mg/L]
measured = [
    ("CC(c1ccccc1)C1NC(=O)CNC(=O)C(CO)NC(=O)C(C(O)C2CNC(=N)N2C2OC(CO)C(O)C(O)C2O)NC(=O)C(C(O)C2CNC(=N)N2)NC(=O)C(Cc2ccc(OC3OC(CO)C(OC4OC5COC(Cc6ccc(F)cc6)OC5C(O)C4O)C(O)C3O)cc2)NC1=O (stereo not shown) [Example 121]", 2),
    ("CC(c1ccccc1)C1NC(=O)CNC(=O)C(CO)NC(=O)C(CC2CNC(=N)N2C2OC(CO)C(O)C(O)C2O)NC(=O)C(CC2CNC(=N)N2)NC(=O)C(Cc2ccc(OC3OC(CO)C(OC4OC(CO)C(O)C(OCc5ccc(OCc6ccccc6)cc5)C4O)C(O)C3O)cc2)NC1=O (stereo not shown) [Example 246b]", 128),
]

Please turn your attention to the following entry.
Determine from records and report MIC Enterococcus faecium (GC 2243) for CC(c1ccccc1)C1NC(=O)CNC(=O)C(CO)NC(=O)C(C(O)C2CNC(=N)N2C2OC(CO)C(O)C(O)C2O)NC(=O)C(C(O)C2CNC(=N)N2)NC(=O)C(Cc2ccc(OC3OC(CO)C(OC4OC5COC(c6ccccc6)OC5C(O)C4O)C(O)C3O)cc2)NC1=O (stereo not shown) [Example 104] 2

----------
# key: entry, value: MIC Enterococcus faecalis (GC 3059)
tested on: Enterococcus sp.; experiment: in vitro antibacterial evaluation, MIC by broth dilution; assay type: cell-based; details: strain GC 3059; broth dilution, 18 hours at 35° C.
Quick note: give the figure in µg/mL, leave out the unit.

Determine from records and report MIC Enterococcus faecalis (GC 3059) for CC(c1ccccc1)C1NC(=O)CNC(=O)C(CO)NC(=O)C(C(O)C2CNC(=N)N2C2OC(CO)C(O)C(O)C2O)NC(=O)C(C(O)C2CNC(=N)N2)NC(=O)C(Cc2ccc(OC3OC(CO)C(OC4OC5COC(c6ccc7ccccc7c6)OC5C(O)C4O)C(O)C3O)cc2)NC1=O (centres unmarked) 1

Determine from records and report MIC Enterococcus faecalis (GC 3059) for CC(c1ccccc1)C1NC(=O)CNC(=O)C(CO)NC(=O)C(C(O)C2CNC(=N)N2C2OC(CO)C(O)C(O)C2O)NC(=O)C(C(O)C2CNC(=N)N2)NC(=O)C(Cc2ccc3oc(SCC(=O)c4ccc(Cl)cc4)nc3c2)NC1=O (centres unmarked) 32

----------
system: Enterococcus sp.; assay: in vitro antibacterial evaluation, MIC by broth dilution; type: cell-based; conditions: strain GC 4553; broth dilution, 18 hours at 35° C.
attribute-measured: MIC Enterococcus faecalis (GC 4553) (mg/L)
Quick note: give the figure in mg/L, leave out the unit.

Determine from records and report MIC Enterococcus faecalis (GC 4553) for COc1ccc(Oc2cccc(-c3nc4cc(CC5NC(=O)C(C(C)c6ccccc6)NC(=O)CNC(=O)C(CO)NC(=O)C(C(O)C6CNC(=N)N6C6OC(CO)C(O)C(O)C6O)NC(=O)C(C(O)C6CNC(=N)N6)NC5=O)ccc4o3)c2)cc1 (centres unmarked) 8
